Each recorded value in this set is attributed to patent US20120094909A1.

Examples of binders with documented pKd follow.
- EXPERIMENTAL_TARGET: T1, human PCSK9 (proprotein convertase subtilisin kexin type 9) (human, UniProt Q8NBP7 31-692)
- T1 construct: immobilized directly (ProteOn), biotinylated (Octet) or in solution, according to the assay; also called hPCSK9; PCSK9-AF647 (labelled form)
- T1 sequence (Q8NBP7 31-692 limits assumed): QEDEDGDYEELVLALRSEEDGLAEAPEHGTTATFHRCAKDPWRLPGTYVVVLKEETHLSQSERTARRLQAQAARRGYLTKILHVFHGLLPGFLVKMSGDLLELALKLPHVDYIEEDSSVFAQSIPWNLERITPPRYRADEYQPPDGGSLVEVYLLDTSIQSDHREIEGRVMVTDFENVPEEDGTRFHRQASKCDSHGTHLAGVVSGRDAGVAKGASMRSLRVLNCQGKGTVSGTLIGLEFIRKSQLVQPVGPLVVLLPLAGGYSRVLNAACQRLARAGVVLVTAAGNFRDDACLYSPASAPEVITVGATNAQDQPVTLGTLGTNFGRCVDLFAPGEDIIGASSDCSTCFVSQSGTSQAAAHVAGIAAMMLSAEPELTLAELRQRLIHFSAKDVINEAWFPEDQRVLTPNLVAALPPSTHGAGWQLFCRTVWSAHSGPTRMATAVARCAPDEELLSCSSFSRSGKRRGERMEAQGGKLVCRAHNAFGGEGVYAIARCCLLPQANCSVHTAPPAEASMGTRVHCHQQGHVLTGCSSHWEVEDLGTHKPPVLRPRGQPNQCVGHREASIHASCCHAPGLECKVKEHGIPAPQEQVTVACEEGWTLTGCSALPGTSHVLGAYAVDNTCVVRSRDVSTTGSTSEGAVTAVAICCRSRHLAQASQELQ
- TEST_PROTOCOL: BLI (Octet Red), 37 C
pKd: −log10 of the molar value.
EXPERIMENTAL_READOUT: pKd

>>> test_result("2382G04 (designed binder) MGVSDVPRDLEVVAATPTSLLISWDAPAGGGYGYYRITYGETGGNSPVQEFTVPSSKGTATISGLKPGVDYTITVYAVEFDFPGAGYYHRPISINYRTEIDKPSQHHHHHH")
8.95
>>> test_result("2381B02 (designed binder) MGVSDVPRDLEVVAATPTSLLISWEPFSRLPGGGEYYRITYGETGGNSPLQQFTVPGSKGTATISGLKPGVDYTITVYAVEYPYDYSGYYHRPISINYRTEIDKPSQHHHHHH")
8.48
>>> test_result("2382D09 (designed binder) MGVSDVPRDLEVVAATPTSLLISWDAPAEGYGYYRITYGETGGNSPVQEFTVPVSKGTATISGLKPGVDYTITVYAVEFDFPGAGYYHRPISINYRTEIDKPSQHHHHHH")
9.52
>>> test_result("2382E05 (designed binder) MGVSDVPRDLEVVAATPTSLLISWDAPAEGGYGYYRITYGETGGNSPVQEFTVPVSKGTATISGLKPGVDYTITVYAVEFDFPGAGYYHRPISINYRTEIDKPSQHHHHHH")
9.22
>>> test_result("2971E02 (designed binder) MGVSDVPRDLEVVAATPTSLLISWDAPSDDYGYYRITYGETGGNSPVQEFTVPIGKGTATISGLKPGVDYTITVYAVEFPWPHAGYYHRPISINYRTEIDKPSQHHHHHH")
8.75
>>> test_result("2382C09 (designed binder) MGVSDVPRDLEVVAATPTSLLISWDAPAEGYGYYRITYGETGGNSPVQEFTVPVSKGTATISGLKPGVDYTITVYAVEFDFPGSGYYHRPISINYRTEIDKPSQHHHHHH")
9.12
>>> test_result("2381B08 (designed binder) MGVSDVPRDLEVVAATPTSLLISWDAPADGGYGYYRITYGETGGNSPVQEFTVPSSKGTATISGLKPGVDYTITVYAVEYTFPGAGYYHRPISINYRTEIDKPSQHHHHHH")
8.39
>>> test_result("2382B10 (designed binder) MGVSDVPRDLEVVAATPTSLLISWDAPADAYGYYRITYGETGGNSPVQEFTVPSSKGTATISGLKPGVDYTITVYAVEYDFPGSGYYHRPISINYRTEIDKPSQHHHHHH")
8.63
